Would you mind telling me the reported interaction score of each entry?
TESTED SYSTEM: T1, 4H470-bA
T1 chain: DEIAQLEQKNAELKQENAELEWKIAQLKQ
METHOD SUMMARY: two-hybrid library CCNG1;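 further: natural log of median RNA to DNA barcode read ratio; higher means stronger binding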
Answer as a number with no unit attached.

DENAQLEQEIAELEQKIAELKWKNAQLKQ [4H1072-bA] yielded interaction score of -1.2

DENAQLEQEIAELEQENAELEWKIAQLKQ [4H1046-bA] yielded interaction score of 0.412

DKIAQLKQEIAELEQEIAELEWKNAQLKQ [4H2568-bA] yielded interaction score of -0.973
